Experiment: terephthalic acid (TPA) released, HPLC; higher = more TPA released; extreme values may be limits of the assay
Settings: PET substrate: cryPow; 60 °C; pH 8.5; 24 h
Endpoint Name: terephthalic acid (mM)
Write the number in mM without appending the unit.

Recorded terephthalic acid for SNPYQRGPNPTRSALTADGPFSVATYTVSRLSVSGFGGGVIYYPTGTSLTFGGIAMSPGYTADASSLAWLGRRLASHGFVVLVINTNSRFDGPDSRASQLSAALNYLRTSSPSAVRARLDANRLAVAGHSMGGGGTLRIAEQNPSLKAAVPLTPWHTDKTFNTSVPVLIVGAEADTVAPVSQHAIPFYQNLPSTTPKVYVELCNASHIAPNSNNAAISVYTISWMKLWVDNDTRYRQFLCNVNDPALCDFRTNNRHCQ [LCC-ICCG] , please?
0.121
